Reference source: the supplement of paper PMC10567573

B1: KLHDC10 (parent)
chain: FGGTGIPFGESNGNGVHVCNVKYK

# Variants of: B1
# Measurement Notes: protein stability index of a GFP-peptide fusion (GPS, HEK-293T) (PSI 1-6); higher = more stable;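 further: lentivirally expressed fusions sorted by FACS into six bins by GFP to DsRed ratio, PSI derived from sequencing read proportions per bin multiplied by bin number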
# Condition Set: c terminus: a fixed tail appended
protein stability index by entry:

Consider the reported protein stability index for these variants:
1) FGGTGIPFGESNGNGVHVCNVYYK ... 1.95
2) FGGTGIPFGESNGNGVHVCHVKYK ... 1.48
3) FGGTGIPFGESNGNGVHVCNVKYD ... 2.4

Dear colleague, I am looking for the recorded protein stability index of the following variant: FGGTGIPFGESNGNGDHVCNVKYK
2.42

Now the same for IGGTGIPFGESNGNGVHVCNVKYK
3.5

What do we get for FGGTGIPFGESNGNGVHICNVKYK ?
1.74

And the next one, FGGTGIPFGESFGNGVHVCNVKYK ?
1.41

Same for FGGTGIPCGESNGNGVHVCNVKYK
3.02

How about this variant: FGGTEIPFGESNGNGVHVCNVKYK
3.42

Request: FGGTGIPFGESNQNGVHVCNVKYK
2.38

Can you check FGGLGIPFGESNGNGVHVCNVKYK next?
1.82

What do you get for FGGTGIPFGESNGLGVHVCNVKYK ?
1.81

Proceed to FGGTGIPRGESNGNGVHVCNVKYK
3.37

Could you do the same for FGGTGIPFGESNGNGVHVGNVKYK , please?
2.06

Consider next the variant FGGTGIPFGEINGNGVHVCNVKYK in the same way.
2.73

Same read-out for FGGTGIPFQESNGNGVHVCNVKYK ?
1.88
